Compiled record: IC50 values for JNK1α1 (Homo sapiens, UniProt P45983) across several sources.

Write down the reported IC50 (system: JNK1α1 (Homo sapiens, UniProt P45983)) of O=C(Cn1c(=O)ccc2cc(F)c(F)cc21)Nc1scc(Br)c1-c1ncn[nH]1
< 100 nM

For JNK1α1 (Homo sapiens, UniProt P45983), give the measured IC50 of the entry O=C(Cc1cccc2cnccc12)Nc1ccsc1-c1cscn1
100 to 10000 nM

Answer briefly: IC50 recorded on JNK1α1 (Homo sapiens, UniProt P45983) for Cn1ccnc1-c1sccc1NC(=O)Cc1cccc2ccccc12
> 10000 nM

# return IC50 for O=C(Cc1cccc2ncccc12)Nc1scc(Br)c1-c1ncn[nH]1 , test system: JNK1α1 (Homo sapiens, UniProt P45983)
< 100 nM

With JNK1α1 (Homo sapiens, UniProt P45983) as the test system, provide measured IC50 for this compound: O=C(Cc1ccc(F)c2ncccc12)Nc1scc(Br)c1-c1ncn[nH]1
< 100 nM

Provide IC50, system JNK1α1 (Homo sapiens, UniProt P45983), entry COC(=O)Nc1ccc(F)c(Cc2c[nH]c3ncc(-c4cccnc4)cc23)c1F
≤ 10000 nM

Find the measured IC50 of O=C(Cc1cccc2ncc(C(F)(F)F)cc12)Nc1scc(Br)c1-c1nc[nH]n1 with JNK1α1 (Homo sapiens, UniProt P45983) as test system.
< 100 nM

Please tell me the measured IC50 for O=C(CN1C(=O)CCc2ccccc21)Nc1scc(Br)c1-c1ncn[nH]1 ; system: JNK1α1 (Homo sapiens, UniProt P45983).
< 100 nM

Report IC50 from JNK1α1 (Homo sapiens, UniProt P45983) testing of CCCS(=O)(=O)Nc1ccc(F)c(C(=O)c2c[nH]c3ncc(-c4cccc(N5CCOCC5)c4)cc23)c1F
≤ 10000 nM

Give IC50; test system JNK1α1 (Homo sapiens, UniProt P45983); compound CCC(C)NC(=O)Nc1ccc(F)c(C(=O)c2c[nH]c3ncc(-c4cccnc4)cc23)c1F (stereo not drawn)
≤ 10000 nM

Given COC(=O)c1c(Cc2ccc(C(=O)N[C@@H]3[C@@H]4C[C@@H]5C[C@H]3C[C@@](NC(=O)C(C)(C)C)(C5)C4)cc2)c(=O)c2ccc(Cl)cc2n1-c1ccccc1 , report its IC50 on JNK1α1 (Homo sapiens, UniProt P45983).
62 nM

With JNK1α1 (Homo sapiens, UniProt P45983) as the test system, provide measured IC50 for this compound: O=C(Cn1c(=O)ccc2cc(C(F)(F)F)ccc21)Nc1scc(Cl)c1-c1ncn(CCCN2CCOCC2)n1
< 100 nM

Give JNK1α1 (Homo sapiens, UniProt P45983) IC50 for the following compound: CS(=O)(=O)Nc1ccc(Cl)c(C(=O)c2c[nH]c3ncc(-c4cccnc4)cc23)c1F
≤ 10000 nM

Retrieve IC50 on JNK1α1 (Homo sapiens, UniProt P45983); query C[C@@H]1CC[C@@H](Nc2nc(Nn3cnnc3)ncc2C(N)=O)C[C@H]1O
> 1000 nM

* * *

Compiled from multiple publications: IC50 readings for JNK1α1 (Homo sapiens, UniProt P45983).

Here is how some compounds turned out for IC50.
Quote IC50 reported for C[C@@H]1CC[C@@H](Nc2nc(NC(C)(C)C)ncc2Cl)C[C@H]1O please.
0.5 to 1 µM

Please supply the value of reported IC50 for the item CN(C)c1ccc(-c2cnc3[nH]cc(-c4ccoc4)c3c2)cc1
< 0.5 µM

Quote IC50 reported for NC(=O)c1cccc(-c2cnc3[nH]cc(C(=O)c4cccc(N)c4)c3c2)c1 please.
≤ 10 µM

We now examine a further compound.
For the compound O=C(Cc1cccc2ccccc12)Nc1ccsc1-n1ccnc1 , give its reported IC50.
> 10 µM
